System: panel of cancer cell lines
Assay: Cell viability (CellTiter-Glo) dose-response across cancer cell line panel;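 also: after 72 h compound incubation with CellTiter-Glo ATP readout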
Type: cell-based, human
Details: Homo sapiens, SNU-1079
RECORDED_ENDPOINT: pEC50
By convention, pEC50 is the negative base-10 log of a molar concentration.

{"columns": ["CPD_SMILES", "MEASUREMENT_TARGET", "RECORDED_ENDPOINT", "MEASURED_NUMBER"],
 "data": [
  ["CC(C)C[C@H](NC(=O)[C@H](Cc1ccccc1)NC(=O)c1cnccn1)B(O)O", "panel of cancer cell lines", "pEC50", 8.05]
]}

q: What value of measured pEC50 is listed for `NS(=O)(=O)OC[C@@H]1C[C@@H](n2ccc3c(N[C@H]4CCc5ccccc54)ncnc32)C[C@@H]1O` ?
a: 6.41

q: And for `COCc1ccccc1NCc1ccc([C@H]2[C@@H](O)CCCc3cncn32)c(-c2ccccc2Cl)c1` ?
a: 6.18
